# test_name: Excitation and fluorescence wavelengths by fluorescence spectrometer FL4500
# Assay type: physicochemical
# test_parameters: aqueous solution: 10 mg/mL DMSO solution diluted to 1/500 with purified water (Examples 1 to 94); in nm (unit assumed)
reported_property: λem (fluorescence wavelength)
Output spec: single numeric token, no unit.

# input Report λem (fluorescence wavelength) for COc1ccc(N2c3ccc(/C=C/c4sc5ccccc5[n+]4CCC(=O)O)cc3C3CCCC32)cc1 (stereo not shown) please.
# output 668

# input Now the same for CCN1c2ccc(/C=C3/SC(=S)N(CCC(=O)O)C3=O)cc2C2CCCC21 (stereo not shown)
# output 604

# input Now the same for CCOC(=O)CN1C(=O)/C(=C\c2cc(Br)c3c(c2)C2CCCC2N3c2ccc(Br)cc2)SC1=S (stereo not shown)
# output 580

# input Now the same for CCCCCCCCN1C(=O)S/C(=c2/s/c(=C/c3ccc4c(c3)C3CCCC3N4c3ccc(C=C(c4ccccc4)c4ccccc4)cc3)c(=O)n2CC(=O)OCC)C1=O (stereo not shown)
# output 671

# input Now the same for CN(C)c1ccc(/C=C/C=C/c2sc3ccccc3[n+]2CC(=O)O)cc1.[Br-]
# output 692

# input Now the same for CC/N=c1\cc2oc3cc(NCC)c(C)cc3c(-c3ccccc3C(=O)CC)c-2cc1C
# output 550

# input Now the same for CCN1C=C/C(=C\C=C\c2oc3ccccc3[n+]2CC)c2ccccc21.[I-]
# output 620

----------
# Tested on: intraocular tissue (retinal tissue incl. photoreceptor cell layer, vitreous body) of Zebrafish 7-day-old embryo
# test_name: Staining of intraocular tissue of Zebrafish fry by exposure to staining liquid, ocular tissue section observed by confocal microscope
# Format: in vivo
# test_parameters: Zebrafish 7 dpf fry, 1 μg/mL, 1 hour exposure, fixed ocular section
reported_property: Staining ability

- compound: "O=C(O)CN1C(=O)/C(=C2C=C/C(=C\\c3ccc4c(c3)C3CCCC3N4c3ccccc3)C\\2)SC1=S (stereo not drawn)"
  Staining ability: "∘"
- compound: "CCN(CC)c1ccc2cc3c(oc2c1)c(C#N)c(=N)n1c2ccccc2nc31"
  Staining ability: "+++"
- compound: "CCN(CC)c1ccc2cc(-c3nc4ccccc4[nH]3)c(=O)oc2c1"
  Staining ability: "++"
- compound: "CCN1S/C(=c2\\s/c(=C/c3ccc4c(c3)[C@@H]3CCC[C@@H]3N4Cc3ccccc3)c(=O)n2CC(=O)O)SC1=S"
  Staining ability: "++"
- compound: "O=C(O)CCN1C(=O)/C(=C\\c2ccc3c(c2)C2CCCC2N3Cc2ccccc2)SC1=S (stereo not drawn)"
  Staining ability: "++"
- compound: "CCN1C(=S)S/C(=c2/s/c(=C/c3ccc4c(c3)C3CCCC3N4c3ccc(C=C(c4ccccc4)c4ccccc4)cc3)c(=O)n2CC(=O)O)C1=S (stereo not drawn)"
  Staining ability: "++"
- compound: "CCCCN1C(=O)/C(=c2\\s/c(=C/c3ccc4c(c3)C3CCCC3N4c3ccc(OC)cc3)c(=O)n2CC(=O)OCC)SC1=S (stereo not drawn)"
  Staining ability: "++"
- compound: "CCN(CC)c1ccc2cc(-c3nc4cc(Cl)ccc4o3)c(=O)oc2c1"
  Staining ability: "+++"

# input Report Staining ability for CCC(/C=C1\Oc2ccc(-c3ccccc3)cc2N1CC)=C\c1oc2ccc(-c3ccccc3)cc2[n+]1CC.[I-] please.
# output ++

# input Now the same for CCn1c(=C2SC(=S)N(CC(=O)O)C2=O)sc(=Cc2ccc3c(c2)C2CCCC2N3c2ccccc2)c1=O (stereo not drawn)
# output ∘

# input Now the same for COc1ccc(N2c3ccc(/C=C/C4=[N+](CCC(=O)O)c5ccccc5C4(C)C)cc3C3CCCC32)cc1.[I-] (stereo not drawn)
# output ++

# input Now the same for CCN(CC)c1ccc2cc3c(oc2c1)c(C#N)c(=O)n1c2ccccc2nc31
# output ++

# input Now the same for CCC(/C=C1\Sc2c(ccc3ccccc23)N1CC)=C\c1sc2c3ccccc3ccc2[n+]1CC.[I-]
# output ++

# input Now the same for O=C1/C(=C/c2ccc3c(c2)C2CCCC2N3c2ccccc2)Oc2ccc(I)cc21 (stereo not drawn)
# output ∘

# input Now the same for Nc1c(Br)cc(O)c2c1C(=O)c1ccccc1C2=O
# output ∘

# input Now the same for O=C(O)CN1C(=O)/C(=C\c2cc(Br)c3c(c2)[C@@H]2CCC[C@@H]2N3c2ccc(Br)cc2)SC1=S
# output ++

# input Now the same for COc1ccc(N2c3ccc(/C=C4\SC(=S)N(CC(=O)O)C4=O)cc3[C@@H]3CCC[C@@H]32)cc1
# output ++

# input Now the same for O=C(O)C1=NN(c2ccccc2)C(=O)/C1=C\c1ccc2c(c1)C1CCCC1N2c1ccc(Cc2ccccc2)cc1 (stereo not drawn)
# output ++

# input Now the same for Cn1c(=O)cc2c3c(c(NC4CCCCC4)ccc31)C(=O)c1ccccc1-2
# output ++

# input Now the same for O=C(O)CN1C(=O)/C(=C\c2cc(Br)c3c(c2)C2CCCC2N3Cc2ccccc2)SC1=S (stereo not drawn)
# output ++

# input Now the same for CC[n+]1c(C=c2sc(=Cc3ccc4c(c3)C3CCCC3N4c3ccc(C=C(c4ccccc4)c4ccccc4)cc3)c(=O)n2-c2ccccc2)sc2ccccc21.[Br-] (stereo not drawn)
# output +++

# input Now the same for CCN(CC)c1ccc2cc(-c3nc4ccccc4s3)c(=O)oc2c1
# output ++

# input Now the same for O=C(O)C[n+]1c(/C=C/c2ccc3c(c2)C2CCCC2N3c2ccc(C=C(c3ccccc3)c3ccccc3)cc2)sc2ccccc21.[Br-] (stereo not drawn)
# output ++

# input Now the same for CCCCCN1/C(=C/C=C/c2oc3ccccc3[n+]2CCCCC)Oc2ccccc21.[I-]
# output ++

# input Now the same for CCCCCCCCN1C(=O)S/C(=c2/s/c(=C/c3ccc4c(c3)C3CCCC3N4c3ccccc3)c(=O)n2CC(=O)OCC)C1=O (stereo not drawn)
# output ++

----------
# test_name: Excitation and fluorescence wavelengths by fluorescence spectrometer FL4500
# Format: physicochemical
# test_parameters: aqueous solution: 10 mg/mL DMSO solution diluted to 1/500 with purified water (Examples 1 to 94); in nm (unit assumed)
Assignment: determine reported λem (fluorescence wavelength) for the given compounds.
Output spec: single numeric token, no unit.

# input Report λem (fluorescence wavelength) for CSc1cccc(N2c3ccc(/C=C4/SC(=S)N(CC(=O)O)C4=O)cc3C3CCCC32)c1 (centres unmarked) [Compound 103] please.
# output 640

# input Now the same for CCN1C(=O)/C(=c2\s/c(=C/c3ccc(N(c4ccccc4)c4ccc5c(c4)C(C)(C)c4ccccc4-5)cc3)c(=O)n2CC(=O)O)SC1=S [Compound 32]
# output 640

# input Now the same for COc1ccc(N2c3ccc(/C=C4\SC(=S)N(CC(=O)O)C4=O)cc3[C@@H]3CCC[C@@H]32)cc1 [Compound 34]
# output 648

# input Now the same for O=C(O)C[n+]1c(/C=C/c2ccc3c(c2)C2CCCC2N3c2ccc(C=C(c3ccccc3)c3ccccc3)cc2)oc2ccccc21.[Br-] (centres unmarked) [Compound 65]
# output 657

# input Now the same for O=C(O)CN1C(=O)/C(=C\c2ccc3c(c2)[C@@H]2CCC[C@@H]2N3c2ccccc2)SC1=S [Compound 37]
# output 633

# input Now the same for CCN(CC)c1ccc2cc(-c3nc4ccccc4[nH]3)c(=O)oc2c1 [Compound 9]
# output 514

# input Now the same for CCCN(CCC)c1ccc2cc(-c3nc4ccccc4[nH]3)c(=O)oc2c1 [Compound 12]
# output 509

# input Now the same for CCOC(=O)Cn1c(=O)/c(=C\c2ccc3c(c2)C2CCCC2N3c2ccc3cc(OC)ccc3c2)s/c1=C1/SC(=O)N(CC)C1=O (centres unmarked) [Compound 54]
# output 647

# input Now the same for CCOC(=O)Cn1c(=Cc2sc3ccccc3[n+]2C)sc(=Cc2ccc3c(c2)C2CCCC2N3c2ccc(C=C(c3ccccc3)c3ccccc3)cc2)c1=O.[Br-] (centres unmarked) [Compound 84]
# output 718

# input Now the same for COc1ccc(N2c3ccc(/C=C/C4=[N+](C)c5ccccc5C4(C)C)cc3C3CCCC32)cc1.[Br-] (centres unmarked) [Compound 74]
# output 669

# input Now the same for COc1ccc(N2c3ccc(/C=C/C4=[N+](CCC(=O)O)c5ccc6ccccc6c5C4(C)C)cc3C3CCCC32)cc1.[I-] (centres unmarked) [Compound 75]
# output 683

# input Now the same for Cn1c(=O)cc2c3c(c(NCc4ccccc4)ccc31)C(=O)c1ccccc1-2 [Compound 3]
# output 556

# input Now the same for CCOC(=O)c1cc(/C=C/C=C/c2sc3ccccc3[n+]2CC(=O)O)c2cccccc1-2.[Br-] [Compound 88]
# output 503

# input Now the same for CCN1C(=S)S/C(=c2/s/c(=C/c3cc(Br)c4c(c3)[C@@H]3CCC[C@@H]3N4c3ccc(Br)cc3)c(=O)n2CC(=O)O)C1=S [Compound 40]
# output 671
